- System name: T1, rat calcitonin receptor (rat, UniProt P32214 25-516)
- T1 construct: whole, on cells; membranes of transiently transfected BHK tk'ts 13 cells (Assay VIII); also called rCTR; rat calcitonin (a) receptor
- T1 sequence (looked up): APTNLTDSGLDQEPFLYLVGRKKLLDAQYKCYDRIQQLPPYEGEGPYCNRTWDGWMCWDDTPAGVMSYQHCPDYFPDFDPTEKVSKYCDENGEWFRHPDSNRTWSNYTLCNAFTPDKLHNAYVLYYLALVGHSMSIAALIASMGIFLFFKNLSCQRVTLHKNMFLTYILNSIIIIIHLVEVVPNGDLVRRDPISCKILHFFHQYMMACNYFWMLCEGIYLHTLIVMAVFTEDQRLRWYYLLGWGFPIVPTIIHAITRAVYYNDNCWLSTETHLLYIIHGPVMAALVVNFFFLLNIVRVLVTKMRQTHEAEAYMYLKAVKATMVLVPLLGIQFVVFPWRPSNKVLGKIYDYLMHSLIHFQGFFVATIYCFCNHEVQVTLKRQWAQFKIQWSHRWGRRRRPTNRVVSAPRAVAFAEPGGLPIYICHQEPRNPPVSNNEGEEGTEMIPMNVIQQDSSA
- Assay name: SPA competition with 125I-calcitonin, membranes of BHK cells with rat calcitonin receptor (Assay VIII)
Numbered stars: 1 amine (or outer) side, 2 acyl side, 3 side chain; on linkers, the order of the positions; unused ones are H or OH. Bridge positions count the residues as written; N and C are the ends. Side chains are listed from the residue outwards. Ends that are not written are not given here. * marks the point of attachment. C20 diacid = O=C(O)CCCCCCCCCCCCCCCCCCC(=O)*; γGlu = O=C(O)[C@H](CCC(=O)[*:2])N[*:1]; AEEA = NCCOCCOCC(=O)O
Measured quantity: IC50 (µM)

Use the examples below as a reference point.
Binder	Measured quantity	Experimental result
K([γGlu-γGlu-C20 diacid])CNTATCATQRLADFLRHSSPNFGAIPSSTNVGSRTY-NH2 (disulfide 2-7 (inferred), analogue of human amylin; also called compound 52)	IC50	0.159
{C20 diacid-γGlu}-KCNTATCATQRLAEFLRHSSPNFGPILPPTNVGSNTY-NH2 (disulfide 2-7 (inferred), analogue of human amylin; also called compound 6)	IC50	0.0515
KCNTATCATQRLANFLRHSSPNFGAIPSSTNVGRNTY (C20 diacid-gGlu on the alpha amino group of the N-terminal residue (Lys 1); disulfide bridge between the two Cys residues; C-terminal amide, analogue of human amylin; also called compound 39) [N^α1-[(4S)-4-carboxy-4-(19-carboxynonadecanoylamino)butanoyl]-[Arg17,Pro21,Pro27,Arg34]-h-amylin]	IC50	0.0964

[I] K([AEEA-γGlu-C20 diacid])CNTATCATQRLANFLRHSSPNFGAIPSSTPVGSNTY-NH2 (disulfide 2-7 (inferred), analogue of human amylin; also called compound 49)
[II] {C20 diacid-γGlu}-KCNTATCATQRLAEFLRHSSPNFGAIPSSTPVGSNTY-NH2 (disulfide 2-7 (inferred), analogue of human amylin; also called compound 31)
// query // compare: I vs II , metric IC50, want the smaller Write the label of whichever entry you select.
// result II
